{"Molecule": "O=C(c1ccccc1)C1CCN(Cc2cncc(-c3ccccc3)c2)CC1", "melting point": "91 to 93 °C"}
{"Molecule": "COC(=O)[C@H]1C[C@H](NC(=O)Oc2ccccc2)c2c(Cl)cc(Cl)cc2N1 (relative stereo)", "melting point": "159 to 161 °C"}
{"Molecule": "O=C1NCCN(NC(=O)c2cc(OCc3ccccc3)c(OCc3ccccc3)cn2)C1=O", "melting point": "231 °C"}
{"Molecule": "CC(=O)N(O)Cc1ccc(Oc2ccccn2)cc1", "melting point": "97 to 99 °C"}
{"Molecule": "CN1CCC(Oc2ccc3ccccc3n2)(c2ccccc2)CC1", "melting point": "80 to 81 °C"}
{"Molecule": "Nc1ncccc1C(=O)NCC1CCN(C[C@H]2COc3cccc(Cl)c3O2)CC1", "melting point": "62 to 70 °C"}
{"Molecule": "O=C(O)CCCC(=O)NCCCCCC1CCSS1 (configuration not stated)", "melting point": "60 to 62 °C"}
{"Molecule": "O=C1CCC(N2Cc3cc(CNC(=O)Nc4ccc(Cl)c(C(F)(F)F)c4)ccc3C2=O)C(=O)N1 (configuration not stated)", "melting point": "261 to 263 °C"}
{"Molecule": "COc1cc2c(cc1OC)CN(CCc1ccc(-c3ccccc3)cc1)CC2", "melting point": "162 to 164 °C"}
{"Molecule": "O=C(C1CCN(Cc2ccccc2)CC1)N1CCc2ccccc2C1", "melting point": "98 to 100 °C"}
{"Molecule": "N#CC=Cc1ccc(Cl)cc1C(=O)c1ccccc1Cl", "melting point": "137 to 139 °C"}
{"Molecule": "CC(=O)N1CC(C)(C)c2cc3nc(-c4ccccc4)[nH]c3cc21", "melting point": "225 to 227 °C"}

----------
{"Molecule": "CC1CCCN(C(=O)C2Cc3ccc(F)cc3N2c2ccc(=O)n(C)n2)C1 (stereo not drawn)", "melting point": "219 to 222 °C"}
{"Molecule": "Nc1cc(-n2cc(C(=O)O)c(=O)c3cc(F)c(F)cc32)c(F)cc1F", "melting point": "> 270 °C"}
{"Molecule": "CC(C)NC(=O)Nc1cccc2c1C(=O)C1(O)c3ccc(C(C)C)cc3OC21O (stereo not drawn)", "melting point": "81 to 85 °C"}
{"Molecule": "Cc1cccc(Nc2nc(-c3cccc(C#N)c3)c(-n3cncn3)s2)n1", "melting point": "236 to 237 °C"}
{"Molecule": "COC(=O)CCCc1cc2nc(Cl)ccc2n1S(=O)(=O)c1ccc(-c2nccs2)cc1", "melting point": "101 °C"}
{"Molecule": "CN(CCc1ccccc1)c1ssc(=O)c1Cl", "melting point": "75 °C"}
{"Molecule": "Cc1nc(N)c2nc(C)n(CCCCCS(=O)(=O)c3ccccc3)c2c1C", "melting point": "166 to 167 °C"}
{"Molecule": "COC(=O)Cn1c(=O)c2ccccc2n(CCCCN2CCC(OC(c3ccccc3)c3ccccc3)CC2)c1=O", "melting point": "91 to 93 °C"}
{"Molecule": "NC(=O)c1nn(-c2ccc(S(N)(=O)=O)cc2)c2ccncc12", "melting point": "301 to 302 °C"}
{"Molecule": "Cc1cc(C)c2c(c1C)OC(C)(C)C2c1ccccc1 (stereo not drawn)", "melting point": "86 to 87 °C"}
{"Molecule": "CC(C)(C)OC(=O)NCC1CCCc2ccc(C(=O)O)cc21 (stereo not drawn)", "melting point": "172 to 176 °C"}
{"Molecule": "CC(C)Cn1c(N(C)C(=O)OC(C)(C)C)c(OCCCC(F)(F)F)c2cc(OCc3ccccc3)ccc2c1=O", "melting point": "117 to 118 °C"}
{"Molecule": "Nc1ccc(Oc2ccc(Oc3ccc(N)cc3)c(P(=O)(c3ccccc3)c3ccccc3)c2)cc1", "melting point": "205 to 208 °C"}

These measurements were taken from a melting point compilation (Tetko et al.; mined from patent text by program, amines drawn as free bases though some values may be those of a salt).
